system: HCT-116; assay: NCI tumour cell line growth inhibition, 48 h
Calls of active or inactive are those of the source. Rule as the data show it: active = GI50 up to about 1.1 µM and inactive = higher.
// one of active, inactive, no free text

Prompt line: Outcome logged for O=C(N/C(=C\c1ccccc1O)c1nc2ccccc2[nH]1)c1ccccc1 in this assay:
Response line: inactive

Prompt line: Outcome logged for OCC1OC(n2cnc3c(SCc4ccccc4)ncnc32)C(O)C1O (stereo not given) in this assay:
Response line: inactive

Prompt line: Outcome logged for Cc1ccc(C(=O)OC(C)C)cc1/N=N/N(C)C in this assay:
Response line: inactive

Prompt line: Outcome logged for CC12CC(Sc3ccccc3N1)c1ccccc1O2 (stereo not given) in this assay:
Response line: inactive

Prompt line: Outcome logged for CCOC(=O)CCC(NC(=O)OCc1ccccc1)C(=O)NC(CCC(=O)OCC)C(=O)NNC(=O)OC(C)(C)C (stereo not given) in this assay:
Response line: inactive

Prompt line: Outcome logged for c1ccc2c(OCC3CO3)ccc(OCC3CO3)c2c1 (stereo not given) in this assay:
Response line: inactive

Prompt line: Outcome logged for Cc1ccc(/N=N/c2c(O)ccc3cc(S(=O)(=O)O)cc(S(=O)(=O)O)c23)cc1 in this assay:
Response line: inactive

Prompt line: Outcome logged for O=C(CC(CC(=O)Oc1c(Br)cc(Br)cc1C(=O)O)C(=O)Oc1c(Br)cc(Br)cc1C(=O)O)Oc1c(Br)cc(Br)cc1C(=O)O in this assay:
Response line: inactive

Prompt line: Outcome logged for [O-]c1c2cc(-[n+]3c(-c4ccccc4)cc(-c4ccccc4)cc3-c3ccccc3)cc1CO[C@@H](c1ccccc1)[C@H](c1ccccc1)OCc1cccc(n1)CO[C@@H](c1ccccc1)[C@H](c1ccccc1)OC2 in this assay:
Response line: active

Prompt line: Outcome logged for Cc1nc2c(O)c3c(c(O)c2nc1C)C1C=CC3CC1 in this assay:
Response line: inactive

* * *

tested on: A549; assay: NCI tumour cell line growth inhibition, 48 h
The source made the active and inactive calls. Cut-off read from the data, not from the text of the source: active = GI50 up to about 1.1 µM and inactive = higher.
Listed compounds paired with reported GI50

For orientation, consider the following solved cases.
>  <compound>
N#Cc1ccc(/N=C(/NCC(=O)O)Nc2cccc3ccccc23)cc1

>  <dataValue>
> 10 µM (inactive)

$$$$
>  <compound>
Nc1nc(CCC(=O)Nc2cccc(C(F)(F)F)c2)cc(-c2cccc3ccccc23)n1

>  <dataValue>
> 100 µM (inactive)

$$$$
>  <compound>
CC(=O)C(=[N+]=[N-])C(=O)N(C)CCC#N

>  <dataValue>
> 10 µM (inactive)

$$$$
>  <compound>
CC(=O)OC1CCn2nnc(COC(=O)NC(C)C)c21 (stereo not given)

>  <dataValue>
> 100 µM (inactive)

$$$$

Please look at the following compound next.
Prompt line: Can you share its GI50? I mean this compound: COc1ccc(CC2c3cc(Oc4cc(CC5c6cc(OC)c(OC)cc6CCN5C)ccc4O)c(OC)cc3CCN2C)cc1 (stereo not given)
Response line: 6.73 µM (inactive)

* * *

tested on: SF-268; test: NCI tumour cell line growth inhibition, 48 h
The source made the active and inactive calls. Rule as the data show it: active = GI50 up to about 1.1 µM and inactive = higher.
metricName: GI50

>  <compound>
COc1cc(C2C(Cl)C(=O)N2NC(=O)c2ccc(N)cc2)cc(Br)c1O (configuration not stated)

>  <assayedTarget>
SF-268

>  <GI50>
4.19 µM (inactive)

$$$$
>  <compound>
O=C1C=CC(=O)c2c1c1c(c3c2C2c4ccccc4C3c3ccccc32)C2c3ccccc3C1c1ccccc12

>  <assayedTarget>
SF-268

>  <GI50>
7.64 µM (inactive)

$$$$
>  <compound>
COc1ccc(-n2cnc3c(N)nc(N)nc32)cc1

>  <assayedTarget>
SF-268

>  <GI50>
> 100 µM (inactive)

$$$$
>  <compound>
CC(=O)N1CCc2c([nH]c3ccc(Br)cc23)C1c1ccccc1 (configuration not stated)

>  <assayedTarget>
SF-268

>  <GI50>
> 9.02 µM (inactive)

$$$$
>  <compound>
CN(C)CC/C(=N\Nc1ccc(Cl)cc1)c1ccccc1

>  <assayedTarget>
SF-268

>  <GI50>
0.566 µM (active)

$$$$
>  <compound>
COC1/C=C\C=C(/C)C(=O)NC2=CC(=O)C(NCCCl)=C(CC(C)CC(OC)C(O)C(C)/C=C(/C)C1OC(N)=O)C2=O (configuration not stated)

>  <assayedTarget>
SF-268

>  <GI50>
0.351 µM (active)

$$$$

Please look at the following compound next.
Prompt line: Can you share its GI50? I mean this compound: CSc1s[s+]c(SC)c1[O-]
Response line: 20.9 µM (inactive)

Value source: ChEMBL document CHEMBL1201862
